# target.of.assay: Cytochrome P450 3A4 (Homo sapiens, UniProt P08684)
# Sequence (P08684 whole entry): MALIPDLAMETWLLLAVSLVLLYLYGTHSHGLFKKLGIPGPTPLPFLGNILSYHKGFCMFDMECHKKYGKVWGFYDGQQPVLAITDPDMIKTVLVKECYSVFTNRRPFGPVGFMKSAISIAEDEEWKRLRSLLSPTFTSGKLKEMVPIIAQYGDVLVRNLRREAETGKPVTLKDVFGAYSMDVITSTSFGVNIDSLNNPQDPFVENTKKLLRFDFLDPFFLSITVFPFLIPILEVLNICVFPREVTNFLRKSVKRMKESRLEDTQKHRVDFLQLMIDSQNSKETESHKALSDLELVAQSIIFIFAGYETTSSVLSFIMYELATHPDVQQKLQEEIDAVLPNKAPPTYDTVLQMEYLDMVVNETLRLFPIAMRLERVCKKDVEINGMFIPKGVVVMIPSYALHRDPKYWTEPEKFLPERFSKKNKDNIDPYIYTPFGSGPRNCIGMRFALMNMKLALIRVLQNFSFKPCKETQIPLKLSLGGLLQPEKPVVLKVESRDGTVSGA
pIC50: −log10 of the molar value.
endpoint.label: pIC50

Inquiry: Fill in the recorded pIC50 for this compound, with Cytochrome P450 3A4 (Homo sapiens, UniProt P08684) as test system: `Cl.Cl.O=C(CN1CCOCC1)Nc1ccc(OC2CCN(C3CCC3)CC2)cc1`
Reply text: < 4.35

---

# procedure.details: AUCt in Beagle dog at 3 mg/kg, po by LC-MS/MS analysis
# Format: ADME, organism-based, Canis lupus familiaris
# condition.label: in vivo
endpoint.label: AUC(0-t) (ng·h/mL)
Number in ng·h/mL, nothing else.

Inquiry: # lookup: AUC(0-t) of `Cl.Cl.O=C(CN1CCOCC1)Nc1ccc(OC2CCN(C3CCC3)CC2)cc1`
Reply text: 1120

src = ChEMBL document CHEMBL4368912
